Target: human PPARα (Homo sapiens)
Sequence (Q07869 239-466 limits assumed): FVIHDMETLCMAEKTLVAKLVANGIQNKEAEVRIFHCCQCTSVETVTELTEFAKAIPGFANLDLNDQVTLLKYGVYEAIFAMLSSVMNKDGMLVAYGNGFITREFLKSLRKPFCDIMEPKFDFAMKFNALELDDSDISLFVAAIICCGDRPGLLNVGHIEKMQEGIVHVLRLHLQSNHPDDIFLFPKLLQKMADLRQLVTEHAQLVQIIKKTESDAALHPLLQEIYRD
Test: Gene reporter (transactivation) assay, Cos-7 cells transfected with pGal4-hPPARα;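 also: luciferase signal from a Gal4-driven reporter normalised to cotransfected β-galactosidase activity, cells exposed to rising compound concentrations with DMSO vehicle as control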
Conditions: GAL4 chimeric hPPARα, 24 h, read-out: hPPAR gene reporter αEC50
EXPERIMENTAL_READOUT: EC50 (nM)
Response body: numeric value in nM, unit text excluded.

[[record]]
compound = "COc1ccc(OC(=O)N(CC(=O)O)Cc2ccc(OCCc3nc(-c4ccccc4)oc3C)cc2)cc1 [mura, Muraglitazar, reference compound]"
measured_number = 595

[[record]]
compound = "CCOC(Cc1ccc(OCCn2c(=O)sc3cc(/C(=N/OC)c4ccccc4)ccc32)cc1)C(=O)O (stereo not drawn) [Compound 40a]"
measured_number = 129


Continue with the next compound.
Q) Recall the recorded EC50 for CON=C(c1ccccc1)c1ccc2c(c1)sc(=O)n2CCOc1ccc(CC(OCC(F)(F)F)C(=O)O)cc1 (racemic) [Compound 40b] with human PPARα (Homo sapiens) and state it.
A) 180
